- METHOD: Compound was evaluated for bioavailability
- Type: ADME, organism-based
- EXPERIMENTAL_SETUP: eutheria, in vivo
OBSERVED_PROPERTY: bioavailability

Ask | State the recorded bioavailability for this entry: CCCCN(CCCC)C(=O)CN1C[C@H](c2cc(OC)c3c(c2)OCO3)[C@@H](C(=O)O)[C@@H]1CC(C)(C)CCC
Reply | 47.7%

* * *

- METHOD: Compound was evaluated for pharmacokinetic data, area under curve (AUC)
- Assay type: ADME
OBSERVED_PROPERTY: AUC
The reply should consist of the numeric value with the unit placed after it.

Below, each entry is followed by its recorded AUC result.
INSERT INTO assay_data (compound, measurement) VALUES
  ('CCCCN(CCCC)C(=O)CN1C[C@H](c2cc(OC)c3c(c2)OCO3)[C@@H](C(=O)O)[C@@H]1CC(C)(C)CCC', '3270 ng·h/mL'),
  ('CCCCN(CCCC)C(=O)CN1C[C@H](c2ccc3c(c2)CCO3)[C@@H](C(=O)O)[C@@H]1c1ccc(C)c(F)c1 (stereo in doubt; 8)', '9400 ng·h/mL'),
  ('CCCCN(CCCC)C(=O)CN1C[C@H](c2ccc3c(c2)OCO3)[C@@H](C(=O)O)[C@@H]1c1ccc(OC)cc1', '7360 ng·h/mL');

Now consider the entry below.
Ask | State the recorded AUC for this entry: CCCCN(CCCC)C(=O)CN1C[C@H](c2ccc3c(c2)CCO3)[C@@H](C(=O)O)[C@@H]1c1ccc(C)c(F)c1 (stereo in doubt; 8a)
Reply | 12500 ng·h/mL
